Test system: Mus musculus
Assay: Antiinflammatory activity in CD1 mouse model of TPA-induced ear edema assessed as ear edema formation at 2 mg/ear administered topically after TPA challenge for 30 mins and measured after 6 hrs post administration (reference value: 17.61 to 19.82 mg)
Format: functional
Reported Activity values are given for each entry in this list.

Molecule	Activity
COc1ccc2c(c1)c(CC(=O)O)c(C)n2C(=O)c1ccc(Cl)cc1 [INDOMETHACIN]	6.99 to 10.49 mg
COC(=O)C1=C(c2ccc([N+](=O)[O-])cc2)c2cccn2C1=O	9.2 mg
COC(=O)C1=C(c2ccc(Br)cc2)c2cccn2C1=O	11.72 mg
COC(=O)Cn1cccc1C=O	11.87 mg
COC(=O)/C(=C\N(C)C)n1cccc1C=O	14.09 mg
